src = PubChem BioAssay AID1775

Kindly state fluorescence (KMESF) for each of the entries shown.
# assay name: green autofluorescence of compounds with avidin beads – biophysical, 488/530 nm, flow cytometry, artefact control, profiling panel (AID 1775)
# assay context: compound fluorescence 488/530 nm, at 10 µM, hits give high values
Screen size: about 220,000 compounds; about 820 (0.37%) were called active. Many of the other results were omitted from the sample, so actives are more common in it than they were.

Exercise: # return recorded fluorescence (KMESF) for entry FC(F)Oc1ccccc1C1CC(c2ccc(Br)s2)Nc2ncnn21 (stereo unspecified)
Key: 72 (active)

Exercise: Quick one: give measured fluorescence (KMESF) for `CCOC(=O)/C=C/CN(C(=O)OC(C)(C)C)S(=O)(=O)N1CC=CC1`
Key: 9 (inactive)

Exercise: Return fluorescence (KMESF) for the following compound: `Cc1cccc(N2CCN(Cc3c(C)n(C)n(-c4ccccc4)c3=O)CC2)c1C`
Key: 16 (inactive)

Exercise: Give fluorescence (KMESF) for `S=C(NCCc1ccccc1)NCc1ccccc1Cl`
Key: 13 (inactive)

Exercise: Answer with reported fluorescence (KMESF) of COc1ccc(C2CC(c3ccccc3)Nc3ncnn32)cc1 (stereo unspecified)
Key: 9 (inactive)

Exercise: Report fluorescence (KMESF) for `CCOC(=O)c1cc2c(=O)[nH]c(C(Cl)(Cl)Cl)nc2o1`
Key: 5 (inactive)

Exercise: Please look at this compound and report its fluorescence (KMESF): COc1cccc(C(=O)N2CCCC(CCC(=O)NCc3ccc(F)c(F)c3)C2)c1 (stereo unspecified)
Key: 8 (inactive)

Exercise: Indicate its recorded fluorescence (KMESF); the compound in question is `COC(=O)c1c(NC(=O)CN(c2ccc(C)c(C)c2)S(C)(=O)=O)sc2c1CCCC2`
Key: 7 (inactive)

Exercise: Answer with the recorded fluorescence (KMESF) for the compound listed here: `O=S(=O)(NCCc1csc(-c2ccccc2)n1)c1cccnc1`
Key: 5 (inactive)

Exercise: // Input: `CN1CCN(Cc2c(O)ccc3c2oc(=O)c2ccccc23)CC1` . Output its fluorescence (KMESF) only.
Key: 22 (inactive)

Exercise: Please look at this compound and report its fluorescence (KMESF): `Cc1cc(NC(=O)CSc2nccn2-c2ccc([N+](=O)[O-])cc2)no1`
Key: 25 (inactive)
